# Tested on: Plasmodium berghei
# Method Summary: Antiplasmodial activity against liver stage of Plasmodium berghei expressing GFP-Luc infected in HuH7 cells incubated at 1 hr prior to infection followed by compound replenisment at 24 hrs post-infection measured after 48 hrs by Alamar blue assay
# Assay type: functional, organism-based
# Measurement Parameters: Huh-7, in the assay text read “luciferase bioluminescence assay” for “Alamar blue assay”
Readout Label: pIC50
Please treat pIC50 as minus the base-10 logarithm of the molar concentration.

COc1ccc(/C=C/C(=O)NCCCCNc2c3ccccc3nc3ccccc23)cc1 :: 5.49

Let us examine a further case.
Sure, the documented pIC50 for COc1cc(NC(C)CCCN)c2ncccc2c1 (stereo not drawn) is 5.10

---

# System: Plasmodium falciparum
# Method Summary: Antiplasmodial activity against ring stage of CQ-resistant Plasmodium falciparum W2 after 48 hrs by flow cytometric analysis
# Type: functional, organism-based
# Measurement Parameters: W2, 48 h
Entries and their pIC50
Expect pIC50 as a plain number equal to -log10 of the molar concentration.

These solved cases illustrate the format of a correct answer.
Cc1ccc(/C=C/C(=O)NCCCCNc2c3ccccc3nc3ccccc23)cc1 :: 6.65
O=C(/C=C/c1ccccc1)NCCCCNc1c2ccccc2nc2ccccc12 :: 6.05
COc1ccc(/C=C/C(=O)NCCCCNc2c3ccccc3nc3ccccc23)cc1 :: 6.86

// switching to the query compound
# compound O=C(/C=C/c1cccc(F)c1)NCCCCNc1c2ccccc2nc2ccccc12 ; its pIC50 = 6.46

---

Let's look at some molecules and their measured IC50.
# Test system: Plasmodium falciparum
# Method Summary: Antiplasmodial activity against ring stage of CQ-resistant Plasmodium falciparum W2 after 48 hrs by flow cytometric analysis
# Format: functional, organism-based
# Measurement Parameters: W2, 48 h
Output spec: scalar in nM, unitless text.

Field: example entries. Status: answers known.
O=C(/C=C/c1cccc([N+](=O)[O-])c1)NCCCCNc1c2ccccc2nc2ccccc12 :: 142
O=C(/C=C/c1ccc(F)cc1)NCCCCNc1c2ccccc2nc2ccccc12 :: 145

// next item, IC50 requested
Memo: CC(C)c1ccc(/C=C/C(=O)NCCCCNc2c3ccccc3nc3ccccc23)cc1 , reported IC50: 126

Source listed as ChEMBL document CHEMBL2321657.
